# TARGET_OF_ASSAY: T1, huZIP12-ECD-GST (human, UniProt Q504Y0 24-202)
# T1 construct: also called hZIP12-ECD-GST; human ZIP12-ECD-GST; not shown: glutathione S-transferase (GST) tag
# ASSAY_PROTOCOL: SPR single cycle kinetics (Biacore): mAb captured on protein A, huZIP12-ECD-GST injected at 3.12-800 nM
# Experimental: Single Cycle Kinetics (SCK) involves first capturing the mAb onto the protein A sensor surface and then sequentially injecting a series of concentrations of huZIP12-ECD-GST over the surface starting at the lowest concentration and ending with the highest concentration. […] The SCK is repeated for each monoclonal antibody providing duplicate data and the kinetics of each interaction is evaluated by the Biacore software. […]
# pKd annotations
Field pKd (float): negative decimal logarithm of the concentration in molar.

H2_K65P_L1 (antibody, V domains shown, Fc null human IgG1 / human kappa) VH: QVQLVESGGGVVQPGRSLRLSCAASGFTFSDYGMHWVRQAPGKGLEWVAYISSGGTTIYYADTVPGRFTISRDNSKNTLYLQMNSLRAEDTAVYYCARWTNLYAMDYWGQGTTVTVSS VL: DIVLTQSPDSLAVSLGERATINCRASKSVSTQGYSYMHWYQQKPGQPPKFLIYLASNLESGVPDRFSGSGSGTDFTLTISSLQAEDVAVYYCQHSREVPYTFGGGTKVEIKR	8.97
H2_Y60K_VL-par (antibody, V domains shown, Fc null human IgG1 / human kappa) VH: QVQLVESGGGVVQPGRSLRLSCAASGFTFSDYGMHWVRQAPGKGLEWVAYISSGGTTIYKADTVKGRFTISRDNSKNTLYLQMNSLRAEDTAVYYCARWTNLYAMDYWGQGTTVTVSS VL: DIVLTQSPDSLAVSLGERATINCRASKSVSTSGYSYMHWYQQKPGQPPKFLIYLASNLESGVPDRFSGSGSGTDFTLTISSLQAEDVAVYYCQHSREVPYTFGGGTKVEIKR	8.96

Sure, the documented pKd for H2_T57H_L1 (antibody, V domains shown, Fc null human IgG1 / human kappa) VH: QVQLVESGGGVVQPGRSLRLSCAASGFTFSDYGMHWVRQAPGKGLEWVAYISSGGTHIYYADTVKGRFTISRDNSKNTLYLQMNSLRAEDTAVYYCARWTNLYAMDYWGQGTTVTVSS VL: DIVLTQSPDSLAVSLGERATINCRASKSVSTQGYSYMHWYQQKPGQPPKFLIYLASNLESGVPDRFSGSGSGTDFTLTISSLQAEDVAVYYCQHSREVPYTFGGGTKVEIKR is 9.13
